TARGET_SYSTEM: mGlyT-1b (Mus musculus, UniProt P28571)
Sequence (P28571 1-651 isoform P28571-2): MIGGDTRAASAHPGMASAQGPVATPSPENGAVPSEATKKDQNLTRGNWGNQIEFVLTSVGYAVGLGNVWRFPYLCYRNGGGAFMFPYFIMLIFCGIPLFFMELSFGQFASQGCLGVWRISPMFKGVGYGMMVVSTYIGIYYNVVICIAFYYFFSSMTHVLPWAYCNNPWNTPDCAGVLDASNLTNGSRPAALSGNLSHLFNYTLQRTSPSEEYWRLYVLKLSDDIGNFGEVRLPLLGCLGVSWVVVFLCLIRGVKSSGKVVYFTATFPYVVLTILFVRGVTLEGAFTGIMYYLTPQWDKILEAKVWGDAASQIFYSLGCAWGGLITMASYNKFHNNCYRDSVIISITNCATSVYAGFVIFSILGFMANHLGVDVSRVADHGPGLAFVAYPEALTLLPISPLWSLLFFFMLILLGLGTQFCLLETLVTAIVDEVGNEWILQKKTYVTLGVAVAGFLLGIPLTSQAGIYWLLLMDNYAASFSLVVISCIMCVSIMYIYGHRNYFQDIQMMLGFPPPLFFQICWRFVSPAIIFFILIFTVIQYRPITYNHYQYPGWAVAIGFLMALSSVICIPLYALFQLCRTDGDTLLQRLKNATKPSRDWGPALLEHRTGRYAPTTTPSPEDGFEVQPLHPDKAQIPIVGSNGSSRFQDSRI
ASSAY_PROCEDURE: Glycine uptake inhibition assay (mGlyT-1b)
PARTICULARS: inhibition of [3H]-glycine uptake in Flp-in-CHO cells stably transfected with mGlyT1b cDNA; 20 min at 22° C.
VALUE_KIND: IC50 (nM)

// field: IC50; key: CNS(=O)(=O)c1ccc(N2CCOCC2)c(C(=O)N2CCN(c3ccc(C(F)(F)F)c(F)c3)CC2)c1 ; value = 12

[1] CNS(=O)(=O)c1ccc(N2CCCC2)c(C(=O)N2CCN(c3ccc(C(F)(F)F)c(F)c3)CC2)c1
[2] CC(=O)c1ccc(N2CCN(C(=O)c3cc(S(C)(=O)=O)ccc3N3CCCCCC3)CC2)c(F)c1
[3] CC(=O)c1ccc(N2CCN(C(=O)c3cc([N+](=O)[O-])ccc3N3CCCC3C)CC2)c(F)c1 (stereo not shown)
Asked: Exam item: list the entries in increasing order of IC50. To answer, arrange all of the labels according to the requested order.
Given back: 1, 3, 2
(1: 4 nM, 3: 8 nM, 2: 19 nM)
